# Test system: HCC-1954 breast cancer cells
# test.method.notes: cells
# Assay type: cell-based
# settings: Homo sapiens, HCC1954; HCC-1954 (HER2+; Lapatinib resistant); Table 6
pIC50: −log10 of the molar value.

compound | experimental.system | pIC50
COc1cc(/C=C/C(=O)CC(=O)/C=C/c2ccc(O)c(OC)c2)ccc1O [Curcumin, curcumin] | HCC-1954 breast cancer cells | 4.92
